# system_under_test: Opioid receptors; mu & delta (Rattus norvegicus) (UniProt P33533+P33535)
# Sequence (P33533 whole entry, looked up): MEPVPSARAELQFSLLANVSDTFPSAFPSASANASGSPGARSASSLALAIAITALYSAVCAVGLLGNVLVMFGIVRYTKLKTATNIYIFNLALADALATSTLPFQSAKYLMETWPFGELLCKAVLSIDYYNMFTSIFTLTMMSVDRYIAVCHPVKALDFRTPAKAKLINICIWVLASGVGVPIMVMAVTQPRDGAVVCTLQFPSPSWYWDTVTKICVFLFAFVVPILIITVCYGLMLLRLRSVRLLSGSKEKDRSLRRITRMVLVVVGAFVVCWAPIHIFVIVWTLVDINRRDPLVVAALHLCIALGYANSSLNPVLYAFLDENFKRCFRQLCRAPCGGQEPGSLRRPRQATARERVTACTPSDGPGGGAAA
# Sequence (P33535 whole entry, looked up): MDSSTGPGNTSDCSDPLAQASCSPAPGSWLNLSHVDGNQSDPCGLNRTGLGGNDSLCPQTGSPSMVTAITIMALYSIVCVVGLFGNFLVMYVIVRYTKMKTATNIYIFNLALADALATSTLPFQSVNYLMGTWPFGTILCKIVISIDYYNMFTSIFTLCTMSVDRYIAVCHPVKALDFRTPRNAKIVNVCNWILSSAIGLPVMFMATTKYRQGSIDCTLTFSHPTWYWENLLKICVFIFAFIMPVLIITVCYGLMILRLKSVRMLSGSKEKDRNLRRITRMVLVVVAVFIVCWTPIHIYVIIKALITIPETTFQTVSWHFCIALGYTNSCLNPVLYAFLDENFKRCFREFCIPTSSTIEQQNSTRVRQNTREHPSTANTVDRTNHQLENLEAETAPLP
# measurement_description: Selectivity for mu 1 and delta 1 opioid receptors
# Assay type: protein assay
observed_property: Selectivity
When you answer, write just the number.

Q: Entry Cc1[nH]c([C@@H]2Cc3ccccc3CN2C(=O)[C@@H](N)Cc2ccc(O)cc2)nc1-c1ccccc1 (stereo in doubt; 4c) : reported Selectivity = ?
Ans: 75

Q: Data request, read-out Selectivity, for N[C@@H](Cc1ccc(O)cc1)C(=O)N1Cc2ccccc2C[C@H]1c1nc(-c2ccccc2)c[nH]1
Ans: 63

* * *

Kindly supply the reported pKi values for the records listed here.
# system_under_test: Mu-type opioid receptor (Rattus norvegicus)
# Sequence (P33535 whole entry): as the sequence (P33535 whole entry, looked up) above
Residues, ends and D or L forms follow the SMILES beside them.
Reminder that pKi is minus the log10 of a molar concentration.

Q: Short answer please: pKi, Mu-type opioid receptor (Rattus norvegicus), entry Cc1[nH]c([C@@H]2Cc3ccccc3CN2C(=O)[C@@H](N)Cc2ccc(O)cc2)nc1-c1ccccc1 (stereo in doubt; 4c)
Ans: 7.68

Q: Quick check: pKi on Mu-type opioid receptor (Rattus norvegicus), item N[C@@H](Cc1ccc(O)cc1)C(=O)N1Cc2ccccc2C[C@H]1c1nc(-c2ccccc2)c[nH]1 ?
Ans: 7.26

Q: # get_value(readout= pKi, system= Mu-type opioid receptor (Rattus norvegicus)) for N[C@@H](Cc1ccc(O)cc1)C(=O)N1Cc2ccccc2C[C@H]1C(=O)NCCc1ccccc1 (HELM PEPTIDE1{Y.[Tic].[c1ccc(CCN[*:1])cc1]}$$$$V2.0)
Ans: 7.16

Q: Provide the documented pKi with Mu-type opioid receptor (Rattus norvegicus) as the system for Cc1[nH]c([C@@H]2CCCCN2C(=O)[C@@H](N)Cc2ccc(O)cc2)nc1-c1ccccc1
Ans: 8.82

Q: Observed pKi on Mu-type opioid receptor (Rattus norvegicus) for Cc1[nH]c([C@@H]2Cc3ccccc3CN2C(=O)[C@@H](N)Cc2ccc(O)cc2)nc1-c1ccccc1 (stereo in doubt) , please.
Ans: 7.07

Q: Please tell me: pKi of Cc1[nH]c([C@@H]2CCCN2C(=O)[C@@H](N)Cc2ccc(O)cc2)nc1-c1ccccc1 , system Mu-type opioid receptor (Rattus norvegicus)?
Ans: 7.64

Q: Form field: pKi recorded for N[C@@H](Cc1ccc(O)cc1)C(=O)N1Cc2ccccc2C[C@H]1c1nc(-c2ccccc2)c(Br)[nH]1 with Mu-type opioid receptor (Rattus norvegicus) (enter value)
Ans: 7.94
